meta.source: PubChem BioAssay (EPA / NIEHS)

- Read-out: Keratin 19 (KRT19), KRT19 (gene 3880)
- experimental details: LTEA_HepaRG_KRT19: Life Technologies and Expression Analysis (LTEA) Assay for Keratin 19 (KRT19) using HepaRG (AID 2283512)
- experimental context: mRNA level, 48 h; actives raise or lower the signal
- Description: LTEA_HepaRG is a cell based, multiplexed-readout assay that uses HepaRG, a human liver cell line, with measurements taken at 48 hours after chemical dosing on a 96-well plate.LTEA_HepaRG_KRT19 is one of 102 assay component(s) measured in the LTEA HepaRG cell culture assay. It is a marker of Cell proliferation, survival, death.Data from the assay component LTEA_HepaRG_KRT19 was analyzed into 1 endpoint. […]
The source made the active and inactive calls. How the source made its calls: active means hit-call score of the fitted dose curve at least 0.9, where 1 is the maximum; inactive means score below 0.9.
Result category, one only: active, inactive

Ask | Please share the test call associated with CN(C)CCCN1c2ccccc2Sc2ccc(Cl)cc21 .
Reply | active

Ask | State the result this test recorded for CCc1cc(C2=C(C(=O)O)N(c3ccccc3C(F)(F)F)S(=O)(=O)c3ccccc32)cc2c1OCO2 .
Reply | active

Ask | Check the results log: what was the call for O=C(O)CC(O)(CC(=O)O)C(=O)O ?
Reply | inactive

Ask | Answer briefly: the call reported for O=C(Oc1ccccc1)c1cccc(C(=O)Oc2ccccc2)c1 in this assay.
Reply | inactive

Ask | Call for entry C#CC(O)C(CC)CCCC (stereo not drawn) :
Reply | inactive

Ask | How did this test come out for CC(C)c1cccc(C(C)C)c1NC(=O)NS(=O)(=O)c1cc(C(C)(C)O)co1 ?
Reply | inactive

Ask | Field: outcome | Entry: O=C(O)c1cccnc1
Reply | inactive

Ask | Kindly provide the recorded test outcome for the following compound: Oc1ccc(O)cc1
Reply | inactive
